B1: GMCL1 (parent)
chain: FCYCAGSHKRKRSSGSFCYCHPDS

- Variants of: B1
- ASSAY_REMARKS: protein stability index of a GFP-peptide fusion (GPS, HEK-293T) (PSI 1-6); higher = more stable;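 note: lentivirally expressed fusions sorted by FACS into six bins by GFP to DsRed ratio, PSI derived from sequencing read proportions per bin multiplied by bin number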
- PARTICULARS: c terminus: a fixed tail appended
Listed variants paired with reported protein stability index
REPORTED_PROPERTY: protein stability index

# MUTATION_ID, OBSERVED_VALUE
measured = [
    ("C20H", 2),
    ("D23E", 2.13),
    ("S14H", 2.79),
    ("C4I", 1.56),
    ("S24C", 1.51),
    ("R12E", 1.15),
    ("P22M", 1.85),
    ("S13W", 1.84),
    ("A5R", 1.85),
    ("S14V", 1.89),
    ("S13H", 2.21),
]

The measured values listed here are drawn from the supplement of paper PMC10567573.
